src = the Human Domainome abundance scans (Beltran et al. 2025)

B1: Homeobox protein cut-like 1, residues 941 to 1008; numbered along this chain, P39880 (parent)
chain: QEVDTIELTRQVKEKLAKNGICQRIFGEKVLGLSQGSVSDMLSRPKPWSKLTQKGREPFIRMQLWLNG

Variants of: B1
Test: abundance fitness (aPCA) (normalised: wild type 0, dead -1); higher = more abundant; growth selection in yeast, the domain comes from the species named
Settings: Homo sapiens
Class assignment keyed on abundance fitness, ranges Low (below -0.3), Mid (-0.3 to below -0.1), High (-0.1 or more)

[[record]]
change = "E28N"
category = "Mid"

[[record]]
change = "F26G"
category = "Low"

[[record]]
change = "F26Q"
category = "Low"

[[record]]
change = "D4Y"
category = "Low"

[[record]]
change = "E28C"
category = "Mid"

[[record]]
change = "T5I"
category = "Mid"

[[record]]
change = "E2H"
category = "Low"

[[record]]
change = "L51R"
category = "Low"

[[record]]
change = "E2S"
category = "Mid"

[[record]]
change = "Q23D"
category = "Low"

[[record]]
change = "P45N"
category = "Mid"

[[record]]
change = "Q23I"
category = "Low"

[[record]]
change = "L42P"
category = "Mid"

[[record]]
change = "L51I"
category = "Mid"

[[record]]
change = "S34K"
category = "High"

[[record]]
change = "T52H"
category = "Low"

[[record]]
change = "I25Q"
category = "High"

[[record]]
change = "K46T"
category = "Mid"

[[record]]
change = "C22W"
category = "Mid"

[[record]]
change = "G32I"
category = "Low"

[[record]]
change = "T9N"
category = "Low"

[[record]]
change = "K18M"
category = "High"

[[record]]
change = "W48I"
category = "Low"

[[record]]
change = "G27K"
category = "Mid"

[[record]]
change = "Q1A"
category = "High"

[[record]]
change = "R44Y"
category = "High"

[[record]]
change = "I6A"
category = "High"

[[record]]
change = "K15G"
category = "Low"

[[record]]
change = "K15T"
category = "Mid"

[[record]]
change = "L8G"
category = "High"

[[record]]
change = "A17N"
category = "Mid"

[[record]]
change = "T5L"
category = "Mid"

[[record]]
change = "V12G"
category = "High"

[[record]]
change = "M41W"
category = "High"

[[record]]
change = "K18G"
category = "Mid"

[[record]]
change = "T5S"
category = "Mid"

[[record]]
change = "E14W"
category = "Mid"

[[record]]
change = "W48M"
category = "Low"

[[record]]
change = "S43K"
category = "High"

[[record]]
change = "L51E"
category = "Low"

[[record]]
change = "Q35M"
category = "High"

[[record]]
change = "G20V"
category = "Low"

[[record]]
change = "G32T"
category = "Mid"

[[record]]
change = "L33Y"
category = "Mid"

